Experiment: qHTS assay to test for compound auto fluorescence at 590 nm (red) in HepG2 cells (AID 720674); also: % is scaled to controls: 0 for no effect and ±100 for the full control effect
Settings: HepG2 autofluorescence, red 540/590 nm, 1 h; series mostly up to 91.3 µM
Activity calls are given as the source filed them. Calls follow the shape of the dose curve; as a rule, active = well fitted curve in the direction sought with a large enough effect in the repeat runs; inconclusive = weak or mixed curves; inactive = flat fitted curve, though single readings scatter.
Assay Metric: fluorescence, relative to Rose Bengal

Compound: O=C(O)O
Assay Metric: fluorescence, relative to Rose Bengal
Recorded Result: -0.453% [at 3.72 µM] (inactive)
--
Compound: O=C1C(c2[nH]c3ccc(S(=O)(=O)O)cc3c2O)=Nc2ccc(S(=O)(=O)O)cc21
Assay Metric: fluorescence, relative to Rose Bengal
Recorded Result: inactive
--
Compound: CC1(C)[C@@H](O)CC[C@]2(C)[C@H]3C(=O)C=C4[C@@H]5C[C@@](C)(C(=O)O)CC[C@]5(C)CC[C@@]4(C)[C@]3(C)CC[C@@H]12
Assay Metric: fluorescence, relative to Rose Bengal
Recorded Result: inactive
--
Compound: O=S(=O)(O)c1ccc(N=Nc2c(O)ccc3ccccc23)cc1
Assay Metric: fluorescence, relative to Rose Bengal
Recorded Result: inactive
--
Compound: CCCCOC(=O)CC
Assay Metric: fluorescence, relative to Rose Bengal
Recorded Result: inactive
--
Compound: O=c1[nH]c(=O)n([C@H]2C[C@H](O)[C@@H](CO)O2)cc1F
Assay Metric: fluorescence, relative to Rose Bengal
Recorded Result: inactive
--
Compound: COC(=O)c1ccccc1C
Assay Metric: fluorescence, relative to Rose Bengal
Recorded Result: inactive
--
Compound: CCO[Si](OCC)(OCC)OCC
Assay Metric: fluorescence, relative to Rose Bengal
Recorded Result: inactive
--
Compound: Cc1cccc2cccnc12
Assay Metric: fluorescence, relative to Rose Bengal
Recorded Result: inactive
--
Compound: CCN1C(=O)c2ccccc2C1Nc1ccc(OCCN2CCCCC2)cc1 (configuration not stated)
Assay Metric: fluorescence, relative to Rose Bengal
Recorded Result: inactive
--
Compound: O=C1c2ccccc2C(=O)N1SC1CCCCC1
Assay Metric: fluorescence, relative to Rose Bengal
Recorded Result: inactive
--
Compound: CCCCC(CC)CN1CN(CC(CC)CCCC)CC(C)(N)C1 (configuration not stated)
Assay Metric: fluorescence, relative to Rose Bengal
Recorded Result: 0.775% [at 18.6 µM] (inactive)
